# Test system: CD2F1 mice, L1210 leukemia ip, survival T/C
# procedure-details: NCI In Vivo Anticancer Drug Screen. Data for tumor model L1210 Leukemia (intraperitoneal) in CD2F1 (CDF1) mice
# test-parameters: endpoint: mean survival time; dose: 200.0 mg/kg/injection; schedule: Q04DX003 (ip); vehicle: saline with Tween-80; higher = longer survival
Toxic doses and inconclusive results are not listed.
Task for the reader: assign each of the following compounds its reported T/C.

Input: Query T/C for CCOC1(C(C)C)CCC(C)/C(=C\c2ccc([N+](=O)[O-])cc2)C1=O (stereo not drawn)
Output: 93 % of control

Input: Query T/C for `COC(=O)c1cc(C(=O)OC)c(C(=O)OC)cc1C(=O)OC`
Output: 92 % of control

Input: Query T/C for `CC(=O)Oc1cccc(C(C)=O)c1`
Output: 100 % of control

Input: Query T/C for `CC(F)(F)Cc1ccccc1`
Output: 95 % of control

Input: Query T/C for CC1=CC(C)(C(Cl)Cl)C=CC1=O (stereo not drawn)
Output: 95 % of control

Input: Query T/C for `CCC[CH2][Sn]([CH2]CCC)([CH2]CCC)[CH2]CC(=O)OC`
Output: 95 % of control

Input: Query T/C for `CC1(C)SSC(C)(C)SS1`
Output: 97 % of control

Input: Query T/C for Nc1ccccc1SC1CC(=O)N(c2ccccc2Cl)C1=O (stereo not drawn)
Output: 89 % of control

Input: Query T/C for `O=[N+]([O-])c1ccc(CCCl)c(CCl)c1`
Output: 86 % of control

Input: Query T/C for `Cc1ccc(OS(=O)(=O)c2ccc(C)cc2)cc1`
Output: 93 % of control

Input: Query T/C for `O=C(/C=C\c1ccc(NCc2ccc(C(=O)O)cc2)cc1)CCl`
Output: 91 % of control

Input: Query T/C for `O=C(CCN1C(=O)c2ccccc2C1=O)c1ccc(O)cc1`
Output: 98 % of control

Input: Query T/C for `CC(=O)c1ccc2c(c1)-c1ccc(C(C)=O)cc1-2`
Output: 86 % of control

###

# Tested on: CD2F1 mice, L1210 leukemia ip, survival T/C
# procedure-details: NCI In Vivo Anticancer Drug Screen. Data for tumor model L1210 Leukemia (intraperitoneal) in CD2F1 (CDF1) mice
# test-parameters: endpoint: mean survival time; dose: 200.0 mg/kg/injection; schedule: Q04DX003 (ip); vehicle: saline
Toxic doses and inconclusive results are not listed. How the source made its calls: active means survival T/C of 150% or more; inactive means T/C below 125% in these data.
Outcome field: choose from true (active), false (inactive)

Input: Field: outcome | Entry: CCN(CC)CCCC(C)(NCc1ccccc1)[P+](=O)O (configuration not stated)
Output: false

Input: Field: outcome | Entry: NC(=O)CCC(NC(=O)c1cnc2ccccc2n1)C(=O)O (configuration not stated)
Output: false

Input: Field: outcome | Entry: `CS(=O)(=O)Nc1ccc(Nc2c3ccccc3nc3cc(Cl)ccc23)cc1`
Output: true

Input: Field: outcome | Entry: `COc1ccc(/C=N/N=C(/C(=O)c2ccc(OC)cc2)c2ccc(OC)cc2)cc1`
Output: false

Input: Field: outcome | Entry: C[S+](C)CCC1NC(=O)NC1=O (configuration not stated)
Output: false

Input: Field: outcome | Entry: `O=S(O)OS(=O)O`
Output: false

Input: Field: outcome | Entry: `O=S(=O)(O)c1cncc(S(=O)(=O)O)n1`
Output: false

Input: Field: outcome | Entry: `O=[N+]([O-])c1ccc(S(=O)(=O)Cl)c(Cl)c1`
Output: false

Input: Field: outcome | Entry: `Cc1cccc(C)c1N=C(NO)c1ccccc1`
Output: false

Input: Field: outcome | Entry: COC(=O)C12CCC1(Cl)CC2 (configuration not stated)
Output: false

Input: Field: outcome | Entry: `CC(=O)Nc1ccc(C=O)cc1`
Output: false

Input: Field: outcome | Entry: `c1ccc(CC2=NCCO2)cc1`
Output: false

Input: Field: outcome | Entry: `COc1ccc(/C=C/C(=O)c2ccc3c(c2)OCO3)cc1OC`
Output: false

Input: Field: outcome | Entry: CN(C)C1C(c2ccccc2)S(=O)(=O)C1(C)C (configuration not stated)
Output: false

Input: Field: outcome | Entry: `O=c1[nH]cc(F)c(=O)[nH]1`
Output: true

Input: Field: outcome | Entry: `N#CCCN1CCOCC1`
Output: false

Input: Field: outcome | Entry: `CN(C)CCCNCc1c[nH]c(=O)[nH]c1=O`
Output: false

###

# Test system: CD2F1 mice, L1210 leukemia ip, survival T/C
# procedure-details: NCI In Vivo Anticancer Drug Screen. Data for tumor model L1210 Leukemia (intraperitoneal) in CD2F1 (CDF1) mice
# test-parameters: endpoint: mean survival time; dose: 25.0 mg/kg/injection; schedule: Q01DX009 (ip); vehicle: Klucel (hydroxypropylcellulose) (HPC)
Toxic doses and inconclusive results are not listed. Rule for the calls: active = survival T/C of 150% or more; inactive = T/C below 125% in these data.
Outcome field: choose from active, inactive

Input: Field: outcome | Entry: CC1CN=C(c2ccc(NC(=O)c3ccc(C(=O)Nc4ccc(C5=NCC(C)N5)cc4)cc3)cc2)N1 (centres undefined)
Output: active

Input: Field: outcome | Entry: `C[C@]12CCC(=O)C(O)=C1CC[C@@H]1[C@@H]2CC[C@]2(C)C(=O)CC[C@@H]12`
Output: inactive

Input: Field: outcome | Entry: `O=C(/C=C1\C(=O)Nc2ccccc21)/C=C1/C(=O)Nc2ccccc21`
Output: inactive

Input: Field: outcome | Entry: `COc1ccc(NC(=O)Oc2ccc(Cl)cc2Cl)c(Cl)c1`
Output: inactive

###

# Test system: CD2F1 mice, L1210 leukemia ip, survival T/C
# procedure-details: NCI In Vivo Anticancer Drug Screen. Data for tumor model L1210 Leukemia (intraperitoneal) in CD2F1 (CDF1) mice
# test-parameters: endpoint: mean survival time; dose: 400.0 mg/kg/injection; schedule: Q04DX002 (ip); vehicle: saline; higher = longer survival
Inconclusive results and toxic doses are left out.
experimental-endpoint: T/C

Input: Query T/C for `CN1CC(=O)n2c(cc3ccccc32)C1=O`
Output: 101 % of control

Input: Query T/C for `O=C1CCCO1`
Output: 102 % of control

Input: Query T/C for `[Co].[NH-]CC[NH-].[NH-]CC[NH-].[NH-]CC[S-]`
Output: 104 % of control

Input: Query T/C for CCCCOP(=O)(OCCCC)C(CCC)OP(OC(CCC)P(=O)(OCCCC)OCCCC)OC(CCC)P(=O)(OCCCC)OCCCC (centres undefined)
Output: 97 % of control

###

# Test system: CD2F1 mice, L1210 leukemia ip, survival T/C
# procedure-details: NCI In Vivo Anticancer Drug Screen. Data for tumor model L1210 Leukemia (intraperitoneal) in CD2F1 (CDF1) mice
# test-parameters: endpoint: mean survival time; dose: 100.0 mg/kg/injection; schedule: Q01DX009 (ip); vehicle: saline with Tween-80; higher = longer survival
Toxic doses and inconclusive results are not listed.
Task for the reader: assign each of the following molecules its reported T/C.

Input: Query T/C for `Cc1ccc(Cl)c(S(=O)(=O)F)c1`
Output: 88 % of control

Input: Query T/C for O=S(=O)(OCC1CC2CCC1CC2)c1ccc(Br)cc1 (centres undefined)
Output: 96 % of control

Input: Query T/C for `Brc1ccccc1C=C1c2ccccc2-c2ccccc21`
Output: 100 % of control

Input: Query T/C for COC(=O)C(Cl)C(Cl)c1ccccc1 (centres undefined)
Output: 100 % of control

Input: Query T/C for `Clc1cccc(Cl)c1C(Cl)Cl`
Output: 98 % of control

Input: Query T/C for `c1ccc2nc3ccccc3cc2c1`
Output: 101 % of control

Input: Query T/C for CC1(CCOCc2ccccc2)NC(=O)NC1=O (centres undefined)
Output: 95 % of control

Input: Query T/C for `C(=Nc1ccccc1)c1ccccc1C=Nc1ccccc1`
Output: 94 % of control

Input: Query T/C for `Fc1c(F)c(F)c([Si](c2c(F)c(F)c(F)c(F)c2F)(c2c(F)c(F)c(F)c(F)c2F)c2c(F)c(F)c(F)c(F)c2F)c(F)c1F`
Output: 97 % of control

Input: Query T/C for `CSC(=S)N/N=C/c1ccccn1`
Output: 98 % of control

Input: Query T/C for `CC(=O)N/C(=C\c1ccccc1)C(N)=O`
Output: 103 % of control

Input: Query T/C for `CCCCN1C(=O)C(=O)N(c2cc(C)c(C)cc2C)C1=O`
Output: 90 % of control

Input: Query T/C for `C=CCON(C)c1ccccc1`
Output: 94 % of control

Input: Query T/C for `CCNc1nc(NC(C)C)nc(SC)n1`
Output: 101 % of control

Input: Query T/C for CC(C)(C)C1CCC(OC(=O)c2ccccc2C(=O)O)CC1 (centres undefined)
Output: 100 % of control

Input: Query T/C for `c1ccc2c(c1)Nc1ccccc1S2`
Output: 92 % of control

Input: Query T/C for `Oc1c(CN2CCOCC2)cc(CN2CCOCC2)cc1CN1CCOCC1`
Output: 100 % of control

Input: Query T/C for COC(=O)C12C=CC(C1)n1c(=O)n(-c3ccccc3)c(=O)n12 (centres undefined)
Output: 98 % of control

Input: Query T/C for CC(O)CNC1CCCCC1 (centres undefined)
Output: 97 % of control

Input: Query T/C for `CC(C)NC(=O)N(c1ccccc1)C(C)C`
Output: 102 % of control

Input: Query T/C for `CCOC(=O)C(=CNc1ccc(OC)cc1[N+](=O)[O-])C(=O)OCC`
Output: 93 % of control

Input: Query T/C for C=CC1CN2CCC1CC2C(O)c1ccnc2ccccc12 (centres undefined) (tested in a mixture with another compound)
Output: 98 % of control

Input: Query T/C for `O=C(NC(=O)c1ccccc1)NS(=O)(=O)c1ccccc1`
Output: 113 % of control

Input: Query T/C for `CC(=O)Nc1ccc(C(=O)C=O)cc1`
Output: 110 % of control

Input: Query T/C for `CC(=O)CCC(C)=O`
Output: 100 % of control

Input: Query T/C for COC(=O)C(CCCCN=Cc1ccccc1O)N=Cc1ccccc1O.[Ni] (centres undefined)
Output: 93 % of control

Input: Query T/C for ClCC1C(CCl)C2(Cl)C(Cl)=C(Cl)C1(Cl)C2(Cl)Cl (centres undefined)
Output: 100 % of control

Input: Query T/C for `O=C(/C=C\c1ccc(NCc2ccc(C(=O)O)cc2)cc1)CCl`
Output: 111 % of control

Input: Query T/C for `NC(=S)Nc1ccc(C(=O)O)cc1`
Output: 96 % of control

Input: Query T/C for `O=C(Nc1ccc(Cl)c(Cl)c1)Nc1cc(Cl)ccc1Sc1ccc(Cl)cc1S(=O)(=O)O`
Output: 105 % of control

Input: Query T/C for CCOC(=O)NC(CCl)C(=O)OC (centres undefined)
Output: 104 % of control

Input: Query T/C for CC(C)OC(=O)N1C(=O)C2C3CCC(O3)C2C1=O (centres undefined)
Output: 97 % of control

Input: Query T/C for `COC(=O)c1ccccc1N=NNc1cccc(SC)c1`
Output: 103 % of control

Input: Query T/C for `O=C(/C(=N/N=C\c1ccc([N+](=O)[O-])cc1)c1ccccc1)c1ccccc1`
Output: 101 % of control

Input: Query T/C for `ON=C1c2c(ccc3ccccc23)-c2ccc3ccccc3c21`
Output: 98 % of control

Input: Query T/C for `COc1cc(OC)c(NC(=O)Nc2ccc(N(C)C(C)=O)cc2)cc1Cl`
Output: 88 % of control

Input: Query T/C for Cc1ccc(C(C#N)Nc2ccccc2)cc1 (centres undefined)
Output: 103 % of control

Input: Query T/C for `O=[N+]([O-])c1ccc(OCc2ccccc2)cc1`
Output: 98 % of control

Input: Query T/C for `O=C(Nc1ccc(Br)cc1)c1ccccc1`
Output: 107 % of control

Input: Query T/C for `COc1c(O)ccc2c1CCCCC2=O`
Output: 100 % of control

Input: Query T/C for `CCOc1cc([N+](=O)[O-])c(OCC)cc1Cl`
Output: 90 % of control

Input: Query T/C for `CCN(CC)CCC(=O)c1ccccc1`
Output: 93 % of control

Input: Query T/C for CCCC(C)CC(=CC(C)(C)C)CC(C)CCC (centres undefined)
Output: 100 % of control

Input: Query T/C for `O=C(Nc1c(Cl)cccc1Cl)OCCOc1ccc(Br)cc1`
Output: 103 % of control

Input: Query T/C for `CCN(CC)CCCNc1c2ccc(Cl)cc2nc2ccc(OC)nc12`
Output: 97 % of control

Input: Query T/C for `C=CCOCCC#N`
Output: 95 % of control

Input: Query T/C for COC1OC2COCOC2C(OS(=O)(=O)c2ccc(C)cc2)C1OS(=O)(=O)c1ccc(C)cc1 (centres undefined)
Output: 97 % of control

Input: Query T/C for `CC(=O)NNC(=O)c1ccc(Br)cc1`
Output: 107 % of control

Input: Query T/C for `COc1ccc(C(O)(c2ccc(OC)cc2)C(c2ccccc2)c2ccccc2)cc1`
Output: 100 % of control
